# TARGET_ENTITY: CCL21 (Homo sapiens, UniProt O00585)
# Sequence (O00585 24-134, species assumed): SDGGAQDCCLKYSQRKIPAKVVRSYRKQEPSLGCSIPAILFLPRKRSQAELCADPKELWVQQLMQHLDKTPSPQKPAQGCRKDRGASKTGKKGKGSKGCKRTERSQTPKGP
# TEST_METHOD_NOTES: Chemokine glycan microarray binding assay
# CONDITION: maximum RFU set as 100% binding, average across 2 glycan concentrations and 3 chemokine dilutions (n=6)
MEASUREMENT_NAME: mean rank binding to CCL21 (%)

Here is how some molecules turned out for mean rank binding to CCL21.
MOLECULE | TARGET_ENTITY | EXPERIMENTAL_RESULT
NCCCO[C@@H]1O[C@@H](C(=O)O)[C@@H](O[C@H]2O[C@H](CO)[C@@H](O[C@@H]3O[C@@H](C(=O)O)[C@@H](O[C@H]4O[C@H](CO)[C@@H](O)[C@H](OS(=O)(=O)O)[C@H]4N)[C@H](O)[C@H]3OS(=O)(=O)O)[C@H](OS(=O)(=O)O)[C@H]2N)[C@H](O)[C@H]1OS(=O)(=O)O | CCL21 (Homo sapiens, UniProt O00585) | 48
NCCOCCO[C@@H]1O[C@@H](C(=O)O)[C@@H](O[C@@H]2O[C@@H](C(=O)O)[C@@H](O[C@@H]3O[C@@H](C(=O)O)[C@@H](OS(=O)(=O)O)[C@H](O)[C@H]3O)[C@H](O)[C@H]2O)[C@H](O)[C@H]1O | CCL21 (Homo sapiens, UniProt O00585) | 60
CC(=O)NC1C(O)[C@H](O)C(COS(=O)(=O)O)O[C@@H]1O[C@@H]1C(C(=O)O)O[C@@H](O[C@@H]2C(COS(=O)(=O)O)O[C@H](O[C@@H]3C(C(=O)O)O[C@@H](OCCCN)C(OS(=O)(=O)O)C3O)C(NC(C)=O)C2O)C(OS(=O)(=O)O)C1O (stereo partly shown) | CCL21 (Homo sapiens, UniProt O00585) | 71

P = NCCCO[C@@H]1OC(C(=O)O)[C@@H](O[C@H]2OC(COS(=O)(=O)O)[C@@H](O[C@@H]3OC(C(=O)O)[C@@H](O[C@H]4OC(COS(=O)(=O)O)[C@@H](O)[C@H](O)C4N)C(O)[C@@H]3O)[C@H](O)C2N)C(O)[C@@H]1O (stereo partly shown)
Q = NCCOCCO[C@@H]1O[C@@H](C(=O)O)[C@@H](OS(=O)(=O)O)[C@H](O)[C@H]1OS(=O)(=O)O
INPUT: Between these two entries, P and Q , state which has the higher mean rank binding to CCL21. Refer to your chosen entry by its label in the reply.
OUTPUT: Q

====

# TARGET_ENTITY: CCL7 (Homo sapiens)
# Sequence (P80098 24-99, species assumed): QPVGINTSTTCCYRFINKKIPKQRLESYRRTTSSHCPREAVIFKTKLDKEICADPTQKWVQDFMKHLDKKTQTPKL
# TEST_METHOD_NOTES: Chemokine glycan microarray binding assay
# CONDITION: maximum RFU set as 100% binding, average across 2 glycan concentrations and 3 chemokine dilutions (n=6)
MEASUREMENT_NAME: mean rank binding to CCL7 (%)
Write the value in % as a bare number.

COMPOUND | UNITS_TEXT | mean rank binding to CCL7
NCCOCCO[C@@H]1O[C@@H](C(=O)O)[C@@H](OS(=O)(=O)O)[C@H](O)[C@H]1OS(=O)(=O)O [Example 3] | % | 17

As a next step, examine the compound that follows.
INPUT: Fill in: mean rank binding to CCL7 of CC(=O)N[C@H]1[C@@H](O[C@H]2[C@H](O)[C@@H](OP(=O)(O)O)[C@H](OCCCN)O[C@H]2C(=O)O)O[C@H](COP(=O)(O)O)[C@@H](O[C@@H]2O[C@@H](C(=O)O)[C@@H](O[C@H]3O[C@H](COP(=O)(O)O)[C@@H](O)[C@H](O)[C@H]3NC(C)=O)[C@H](O)[C@H]2OP(=O)(O)O)[C@@H]1O [Example 21] is ___
OUTPUT: 56

====

Each entry below lists one item and its recorded mean rank binding to CXCL10 value.
# TARGET_ENTITY: CXCL10 (Homo sapiens, UniProt P02778)
# Sequence (P02778 22-98, species assumed): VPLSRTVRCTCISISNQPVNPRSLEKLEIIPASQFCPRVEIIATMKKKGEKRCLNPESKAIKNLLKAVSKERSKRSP
# TEST_METHOD_NOTES: Chemokine glycan microarray binding assay
# CONDITION: maximum RFU set as 100% binding, average across 2 glycan concentrations and 3 chemokine dilutions (n=6)
Write the value in % as a bare number.

COMPOUND | mean rank binding to CXCL10 [%]
NCCCO[C@@H]1O[C@@H](C(=O)O)[C@@H](O[C@H]2O[C@H](CO)[C@@H](O[C@@H]3O[C@@H](C(=O)O)[C@@H](O[C@H]4O[C@H](CO)[C@@H](O)[C@H](OS(=O)(=O)O)[C@H]4N)[C@H](O)[C@H]3O)[C@H](OS(=O)(=O)O)[C@H]2N)[C@H](O)[C@H]1O [Example 22] | 65

As a next step, examine the compound that follows.
INPUT: Fill in: mean rank binding to CXCL10 of CC(=O)NC1C(O)[C@H](O)C(COS(=O)(=O)O)O[C@@H]1O[C@@H]1C(C(=O)O)O[C@@H](O[C@@H]2C(COS(=O)(=O)O)O[C@H](O[C@@H]3C(C(=O)O)O[C@@H](OCCCN)C(OS(=O)(=O)O)C3O)C(NC(C)=O)C2O)C(OS(=O)(=O)O)C1O (some centres unmarked) [Example 20] is ___
OUTPUT: 64

====

# TARGET_ENTITY: UniProt:P48061
# TEST_METHOD_NOTES: Chemokine glycan microarray binding assay
# CONDITION: maximum RFU set as 100% binding, average across 2 glycan concentrations and 3 chemokine dilutions (n=6)
MEASUREMENT_NAME: mean rank binding to CXCL12 (%)

COMPOUND | EXPERIMENTAL_RESULT
CC(=O)N[C@H]1[C@@H](O[C@H]2[C@H](O)[C@@H](O)[C@H](OCCCN)O[C@H]2C(=O)O)O[C@H](COP(=O)(O)O)[C@@H](O[C@@H]2O[C@@H](C(=O)O)[C@@H](O[C@H]3O[C@H](COP(=O)(O)O)[C@@H](O)[C@H](O)[C@H]3NC(C)=O)[C@H](O)[C@H]2O)[C@@H]1O [Example 26] | 75
NCCOCCO[C@@H]1O[C@@H](C(=O)O)[C@@H](O[C@@H]2O[C@@H](C(=O)O)[C@@H](O[C@@H]3O[C@@H](C(=O)O)[C@@H](O[C@@H]4O[C@@H](C(=O)O)[C@@H](OS(=O)(=O)O)[C@H](O)[C@H]4OS(=O)(=O)O)[C@H](O)[C@H]3OS(=O)(=O)O)[C@H](O)[C@H]2OS(=O)(=O)O)[C@H](O)[C@H]1OS(=O)(=O)O [Example 12] | 91

1 = CC(=O)NC1C(O)[C@H](O)C(CO)O[C@@H]1O[C@@H]1C(C(=O)O)O[C@@H](O[C@@H]2C(CO)O[C@H](O[C@@H]3C(C(=O)O)O[C@@H](OCCCN)C(OS(=O)(=O)O)C3O)C(NC(C)=O)C2O)C(OS(=O)(=O)O)C1O (stereo partly shown) [Example 14]
2 = NCCOCCO[C@@H]1OC(C(=O)O)[C@@H](O[C@@H]2OC(C(=O)O)[C@@H](O[C@@H]3OC(C(=O)O)[C@@H](O[C@@H]4OC(C(=O)O)[C@@H](O)C(O)C4O)C(O)C3O)C(O)C2O)C(O)C1O (stereo partly shown) [Example 10]
INPUT: Between these two entries, 1 and 2 , state which has the higher mean rank binding to CXCL12. Refer to your chosen entry by its label in the reply.
OUTPUT: 2
(2: 98%, 1: 11%)

====

# TARGET_ENTITY: CXCL12 (Homo sapiens)
# Sequence (P48061 22-93, species assumed): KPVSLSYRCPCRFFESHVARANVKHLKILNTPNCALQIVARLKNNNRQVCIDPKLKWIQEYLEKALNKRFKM
# TEST_METHOD_NOTES: Chemokine glycan microarray binding assay
# CONDITION: maximum RFU set as 100% binding, average across 2 glycan concentrations and 3 chemokine dilutions (n=6)
MEASUREMENT_NAME: mean rank binding to CXCL12 (%)

Here is how some compounds turned out for mean rank binding to CXCL12.
COMPOUND | mean rank binding to CXCL12 [%]
NCCOCCO[C@@H]1O[C@@H](C(=O)O)[C@@H](OS(=O)(=O)O)[C@H](O)[C@H]1O | 66
NCCCO[C@@H]1O[C@@H](C(=O)O)[C@@H](O[C@H]2O[C@H](CO)[C@@H](O[C@@H]3O[C@@H](C(=O)O)[C@@H](O[C@H]4O[C@H](CO)[C@@H](O)[C@H](OS(=O)(=O)O)[C@H]4N)[C@H](O)[C@H]3OS(=O)(=O)O)[C@H](OS(=O)(=O)O)[C@H]2N)[C@H](O)[C@H]1OS(=O)(=O)O | 45

a = NCCCO[C@@H]1OC(C(=O)O)[C@@H](O[C@H]2OC(COS(=O)(=O)O)[C@@H](O[C@@H]3OC(C(=O)O)[C@@H](O[C@H]4OC(COS(=O)(=O)O)[C@@H](O)[C@H](O)C4N)C(O)[C@@H]3O)[C@H](O)C2N)C(O)[C@@H]1O (stereo partly shown)
b = NCCOCCO[C@@H]1O[C@@H](C(=O)O)[C@@H](O[C@@H]2O[C@@H](C(=O)O)[C@@H](OS(=O)(=O)O)[C@H](O)[C@H]2O)[C@H](O)[C@H]1O
INPUT: Between these two entries, a and b , state which has the higher mean rank binding to CXCL12. Refer to your chosen entry by its label in the reply.
OUTPUT: b

The reported numbers originate from patent US20260207654A1.
